What pIC50 was measured for each of the following?
Biological target: Prostaglandin D2 receptor 2 (Homo sapiens)
Sequence (Q9Y5Y4 whole entry): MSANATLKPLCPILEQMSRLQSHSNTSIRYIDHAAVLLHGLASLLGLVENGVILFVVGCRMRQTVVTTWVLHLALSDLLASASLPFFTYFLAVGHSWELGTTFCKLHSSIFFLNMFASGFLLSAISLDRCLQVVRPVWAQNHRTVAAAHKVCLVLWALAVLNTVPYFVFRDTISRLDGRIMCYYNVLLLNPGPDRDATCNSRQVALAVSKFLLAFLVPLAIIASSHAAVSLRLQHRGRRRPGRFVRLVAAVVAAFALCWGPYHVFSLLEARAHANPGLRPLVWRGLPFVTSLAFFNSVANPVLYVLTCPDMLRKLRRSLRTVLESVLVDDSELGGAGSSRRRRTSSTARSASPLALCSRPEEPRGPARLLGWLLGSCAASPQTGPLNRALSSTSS
Assay: Antagonist activity at CRTh2 (unknown origin) stably expressed in PGD2-stimulated CHO.K1 cells preincubated for 1 hr by radio-labelled [35S]-GTPgammaS binding assay
Type: functional, cell-based
In simple prose, pIC50 is minus the logarithm base ten of a concentration in moles per litre.

Input line: For the molecule Cc1c(Cc2ccccc2S(=O)(=O)c2ccccc2)c2c(n1CC(=O)O)CC(C)(C)NC2=O , report pIC50.
Output line: 8.40

Input line: Report pIC50, nothing else, for this molecule: Cc1c(Cc2ccc(S(C)(=O)=O)cc2)c2c(n1CC(=O)O)CCNC2=O
Output line: 6.05

Input line: Could you please provide reported pIC50 for Cc1c(Cc2ccccc2S(=O)(=O)C2CCCCC2)c2c(n1CC(=O)O)CCNC2=O ? Thanks!
Output line: 7.55

Where do the numbers come from? From ChEMBL document CHEMBL3351921.
